- protocol.details: NCI Yeast Anticancer Drug Screen. Data for the mec2-1 strain (AID 157)
- experimental.context: S. cerevisiae mec2-1 strain, at 5.0 µM (retest, dose inferred, filed as 0.5), active compounds read high
This is part of a sample that, as a whole, favours compounds with a hit. Of some 79,000 tested, about 15% had one in any assay.
Overview of reported growth inhibition across a group of compounds:
Respond numerically; units are % and should not be typed.

                                   compound  units_label  numeric_value
0  COCCN1C(=O)C2c3[nH]c4ccccc4c3C3CCC(C(C)(C)C)CC3C2C1=O (configuration not stated)            %             -1
1         Cc1c(C)c2cc3c(=O)ccoc3c(C)c2oc1=O            %              1

State the recorded growth inhibition for this entry: "O=[N+]([O-])c1ccc(N/N=C/COCCO)c([N+](=O)[O-])c1"
9

State the recorded growth inhibition for this entry: "CN(C=O)c1ccc2c(c1)Cc1ccccc1-2"
4

###

- protocol.details: NCI Yeast Anticancer Drug Screen. Data for the mlh1 rad18 strain (AID 175)
- experimental.context: S. cerevisiae mlh1 rad18 strain growth inhibition; at 50.0 µM
Compounds without any hit were thinned out: in the full panel of roughly 79,000, 15% have a hit. Active and inactive are the calls of the source. Cut-off read from the data, not from the text of the source: active = growth inhibition above about 70%; inactive = the rest.
Answer with one of the outcomes given here: yes (1) for active, no (0) for inactive

The examples below pair each entry with its known result.
>>> df
                                   compound  label_value
0         O=C1NC(=O)N(c2ccc(Cl)c(Cl)c2)C1=O       no (0)
1  CC(=O)C1C(S)CC2C3CC=C4CC(O)CCC4(C)C3CCC21C (stereo unspecified)      yes (1)
2  COC1(CO)C(=O)N(C)CC(=O)N1C (stereo unspecified)      yes (1)
3  N#CC(C#N)=C1CCC(CC2CCCCC2)CC1 (stereo unspecified)      yes (1)
4  COc1cc(C2=N/C(=C\c3ccccc3O)C(=O)O2)cc(OC)c1OC       no (0)

Now consider the entry below.
Give the logged outcome of this assay for the following compound: "COc1ccc(C(=O)C(CN2CCCC2)CN2CCCC2)cc1"
no (0)

###

- protocol.details: NCI Yeast Anticancer Drug Screen. Data for the rad50 strain (AID 155);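 also: 0% = growth of vehicle-only cultures of the same strain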
- experimental.context: S. cerevisiae rad50 strain growth inhibition; at 50.0 µM
Compounds without any hit were thinned out: in the full panel of roughly 79,000, 15% have a hit. The source made the active and inactive calls. Cut-off read from the data, not from the text of the source: active = growth inhibition above about 70%; inactive = the rest.
Answer with one of the outcomes given here: yes (1) for active, no (0) for inactive

molecule	label.value
O=[N+]([O-])c1cc(Cl)c(Cl)cc1NS(=O)(=O)c1ccccc1	no (0)

Give the logged outcome of this assay for the following molecule: C1CCC(OC2CCCCO2)OC1 (stereo not given)
yes (1)

Give the logged outcome of this assay for the following molecule: N#CC1Oc2ccccc2N1C(=O)c1ccccc1 (stereo not given)
no (0)

Give the logged outcome of this assay for the following molecule: "CC(C)c1ccc2nc3ccc(C(=O)NCCN4CCN(c5ccccc5)CC4)cn3c(=O)c2c1"
no (0)

Give the logged outcome of this assay for the following molecule: "C/C=c1/[nH]c(=O)/c(=C\c2ccccc2)[nH]c1=O"
no (0)

Give the logged outcome of this assay for the following molecule: "O=C(CC(=O)c1ccccc1)CC1(O)CCCCC1"
no (0)

Give the logged outcome of this assay for the following molecule: "Cc1ccccc1N1CCN(c2c3c(nc4ccccc24)CCCCC3)CC1"
yes (1)

Give the logged outcome of this assay for the following molecule: "OCc1ccc(OCc2ccccc2)c(OCc2ccccc2)c1"
yes (1)

Give the logged outcome of this assay for the following molecule: COc1ccccc1NC(=O)CC(=O)N1N=C(C)C(N=Nc2ccc(C(=O)O)cc2)C1=O (stereo not given)
no (0)

Give the logged outcome of this assay for the following molecule: "c1ccc(NCCSc2nc3ccccc3s2)cc1"
no (0)

Give the logged outcome of this assay for the following molecule: "O=C1NC(=O)N(c2ccc(Cl)c(Cl)c2)C1=O"
yes (1)

Give the logged outcome of this assay for the following molecule: CC1=NN(c2nc(N)nc(C(C)Sc3cc(Cl)c(C)cc3S(N)(=O)=O)n2)C(C)(C)C1 (stereo not given)
no (0)

Give the logged outcome of this assay for the following molecule: C[N+]12CC3C4CC(C3C1)C2C4 (stereo not given)
no (0)

Give the logged outcome of this assay for the following molecule: O=C(NCCCCCCNC(=O)n1cc(F)c(=O)[nH]c1=O)NCCCOCCOCCOCCOCCOCCOCCOCCOCCOCCOCCOCCOCCOCCOCCOCCOCCOCCOCCOCCOCCOCCCNC(=O)C(O)C(O)C(O)C(O)CO (stereo not given)
no (0)

Give the logged outcome of this assay for the following molecule: COc1ccc(C2COc3cc(O)c(O)cc3C2)cc1 (stereo not given)
yes (1)

###

- protocol.details: NCI Yeast Anticancer Drug Screen. Data for the sgs1 mgt1 strain (AID 161);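 also: 0% = growth of cultures given vehicle only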
- experimental.context: S. cerevisiae sgs1 mgt1 strain, at 5.0 µM (retest, dose inferred, filed as 0.5)
The panel holds about 79,000 compounds, 15% with a hit somewhere; the sample as a whole holds those more often. Active and inactive are the calls of the source. Cut-off read from the data, not from the text of the source: active = growth inhibition above about 70%; inactive = the rest.
Answer with one of the outcomes given here: TRUE = active, FALSE = inactive

                                   molecule  label_value
0  O=C(Nc1ccc(C(=O)c2ccccc2)cc1)Nc1ccc(Cl)c(Cl)c1        FALSE
1    Nc1ncnc2c1c(-c1ccccc1)cn2-c1ccc(Cl)cc1        FALSE
2                  CNc1ccc2c(c1)c1ccccc1n2C        FALSE
3  CN(C)CCC(/C=C/c1ccccc1)=N\Nc1ccc(Cl)c(Cl)c1         TRUE
4  CCCCCCCCCCCCOC(=O)C[n+]1cccc(C(=O)Nc2ccc(Cl)cc2)c1        FALSE

Give the logged outcome of this assay for the following molecule: "O=C1C=CC(=O)c2c(O)c(N3CCN(CCO)CC3)c(Cl)c(O)c21"
FALSE

Give the logged outcome of this assay for the following molecule: O=C(O)C1CC2C3(Cl)C(Cl)=C(Cl)C(Cl)C2(CC1c1c2ccc(=O)c(O)c-2oc2c(O)c(O)ccc12)C3(Cl)Cl (stereo not drawn)
FALSE

Give the logged outcome of this assay for the following molecule: "O=[N+]([O-])/C(C(Cl)=C(Cl)Cl)=C(/Nc1ccccc1)Sc1ccccc1"
FALSE

Give the logged outcome of this assay for the following molecule: C=C(CCC(C)C1CCC2(C)C3=C(CC(O)C12C)C1(C)CCC(O)C(C)(C)C1CC3)C(C)C(=O)O (stereo not drawn)
FALSE

Give the logged outcome of this assay for the following molecule: "CC/C(=C(\CC)c1ccc(O)c(CN(C)C)c1)c1ccc(OC)cc1"
FALSE

###

- protocol.details: NCI Yeast Anticancer Drug Screen. Data for the cln2 rad14 strain (AID 165);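 also: 0% = growth equal to vehicle treated cultures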
- experimental.context: S. cerevisiae cln2 rad14 strain, at 5.0 µM (retest, dose inferred, filed as 0.5), active compounds read high
The panel holds about 79,000 compounds, 15% with a hit somewhere; the sample as a whole holds those more often.
value.kind: growth inhibition (%)
Respond numerically; units are % and should not be typed.

Answered cases to consult:
compound	units.label	growth inhibition
Cc1c(NC(=O)C(=O)N=NC(=O)c2ccncc2)c(O)c2ccccc2c1O	%	-24
CC(C)C(OC(=O)c1ccc(NCc2cc(O)ccc2O)cc1)C(C)C	%	21
COc1ccc2nc3cc(Cl)ccc3c(NCCNc3c4ccc(Cl)cc4nc4ccc(OC)cc34)c2c1	%	37
O=c1ccccc(Br)c1O	%	19
CCNc1ccc2c(c1)Cc1ccccc1-2	%	3

State the recorded growth inhibition for this entry: "O=C1C=CC(=O)N1C1CCCCC1"
30

State the recorded growth inhibition for this entry: CCCCCCCCCCCCCCCC[N+](C)(CCO)Cc1cnc[nH]1 (configuration not stated)
98

State the recorded growth inhibition for this entry: COc1ccc(C2COc3cc(O)c(O)cc3C2)cc1 (configuration not stated)
46

State the recorded growth inhibition for this entry: "O=C1C=CC2=Nc3ccccc3CCC2=C1"
-52

State the recorded growth inhibition for this entry: "COc1ccc(CN=C(N)N)c2ccccc12"
31

State the recorded growth inhibition for this entry: "O=S(=O)(Nc1ccnn1-c1ccccc1)c1ccc(N=Cc2c3ccccc3nc3cc(Cl)ccc23)cc1"
-1

State the recorded growth inhibition for this entry: "C/C(Cl)=N\OC(=O)Nc1ccc(C)cc1"
4

State the recorded growth inhibition for this entry: COc1cccc(N2C(=O)C3CC(CC(C)(C)C)c4c([nH]c5ccccc45)C3C2=O)c1 (configuration not stated)
-4

State the recorded growth inhibition for this entry: "CN(C)c1cccc(F)c1C(=O)NC(=O)Nc1ccc(Cl)cc1"
51

###

- protocol.details: NCI Yeast Anticancer Drug Screen. Data for the cln2 rad14 strain (AID 165);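 also: 0% = growth equal to vehicle treated cultures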
- experimental.context: S. cerevisiae cln2 rad14 strain, at 5.0 µM (retest, dose inferred, filed as 0.5)
- Experimental: Growth inhibition of yeast strains with defined genetic alterations is measured as a screen for potential anti-cancer activity. Selected strains with alterations in DNA damage repair or cell cycle control were exposed to compounds and growth inhibition was measured relative to vehicle treated controls. The strain used in this assay is cln2 rad14
About 79,000 compounds went through this panel and 15% of them were active in at least one assay; those are over-represented in the sample as a whole. Calls of active or inactive are those of the source. Cut-off read from the data, not from the text of the source: active = growth inhibition above about 70%; inactive = the rest.
Answer with one of the outcomes given here: class 1 = active, class 0 = inactive

The examples below pair each entry with its known result.
>>> print(df.to_string())
                                   compound  label_value
0  C[n+]1c(-c2cccc(OCCCCCCCCOc3cccc(-c4c5cc(N)ccc5c5ccc(N)cc5[n+]4C)c3)c2)c2cc(N)ccc2c2ccc(N)cc21      class 1
1                CN(C)c1cc2nc3ccccc3nc2cc1O      class 0
2  C[C@]12CCC(=O)C=C1CC[C@@H]1[C@@H]2[C@@H](O)C[C@@]2(C)[C@H]1CC[C@]2(O)C(=O)COC(=O)C1CCCC1      class 0
3  CCOC(=O)CCC(NC(=O)c1ccc(NC(OC)c2nc3cc(C(F)(F)F)ccc3nc2-c2ccccc2)cc1)C(=O)OCC (stereo not given)      class 1
4  c1ccc2c(c1)C[n+]1ccc3ccccc3c1-c1c3ccccc3cc[n+]1C2      class 0

Give the logged outcome of this assay for the following compound: CNC(=O)OC(C)CN1c2ccccc2Sc2ccc(Cl)cc21 (stereo not given)
class 0

Give the logged outcome of this assay for the following compound: "CC(/C=C/c1cccs1)=N\C(=S)NC(N)=S"
class 0
